Source of measurements: patent US11236129B2

Experimental protocol: Isoelectric point, log D and log P (SiriusT3)
Assay type: physicochemical
Test settings: pH 7.4, Log D (7.4)
Residues, ends and D or L forms follow the SMILES beside them.
Recorded metric: logD

[ask] For CC[C@H](C)[C@H](NC(C)=O)C(=O)N[C@@H](Cc1c[nH]cn1)C(=O)N[C@H](C(=O)N[C@H](C(=O)N[C@H](C(=O)N1CCC[C@H]1C(=O)N[C@@H](C)C(=O)N[C@@H](CC(=O)O)C(=O)N[C@@H](CC(C)C)C(=O)N[C@@H](Cc1c[nH]c2ccccc12)C(=O)N[C@@H](CC(=O)O)C(=O)N[C@@H](Cc1c[nH]c2ccccc12)C(=O)N[C@H](C(=O)N[C@@H](CCCNC(=N)N)C(=O)N[C@@H](CCCCN)C(N)=O)[C@@H](C)CC)[C@@H](C)CC)[C@@H](C)O)C(C)C [SEQ ID NO: 9] (Ac-IHVTIPADLWDWIRK-NH2) , write its logD.
[reply] -1.08

[ask] For CC[C@H](C)[C@H](NC(C)=O)C(=O)N[C@@H](Cc1c[nH]cn1)C(=O)N[C@H](C(=O)N[C@H](C(=O)N[C@H](C(=O)N1CCC[C@H]1C(=O)N[C@@H](C)C(=O)N[C@@H](CC(=O)O)C(=O)N[C@@H](CC(C)C)C(=O)N[C@@H](Cc1c[nH]c2ccccc12)C(=O)N[C@@H](CC(=O)O)C(=O)N[C@@H](Cc1c[nH]c2ccccc12)C(=O)N[C@H](C(=O)N[C@@H](CC(N)=O)C(=O)N[C@@H](CCCNC(=N)N)C(N)=O)[C@@H](C)CC)[C@@H](C)CC)[C@@H](C)O)C(C)C [SEQ ID NO: 10] (Ac-IHVTIPADLWDWINR-NH2) , write its logD.
[reply] -3.66

* * *

Assayed system: IL-17RA/IL17RC dimerization induced by IL-17A (Homo sapiens, UniProt Q16552)
Sequence (Q16552 24-155): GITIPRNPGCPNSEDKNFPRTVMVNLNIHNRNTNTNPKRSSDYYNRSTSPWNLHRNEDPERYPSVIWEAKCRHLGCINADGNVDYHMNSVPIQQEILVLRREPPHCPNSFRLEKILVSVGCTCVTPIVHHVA
Experimental protocol: IL-17RA/IL17RC dimerization assay in response to IL-17A (PathHunter Cytokine Receptor Assay)
Format: cell-based
Test settings: IL-17A at EC80; read-out: IC50 in IL-17RA/IL7RC dimerization assay
Residues, ends and D or L forms follow the SMILES beside them.
Recorded metric: IC50

[ask] For CC[C@H](C)[C@H](NC(C)=O)C(=O)N[C@@H](Cc1c[nH]cn1)C(=O)N[C@H](C(=O)N[C@H](C(=O)N[C@H](C(=O)N1CCC[C@H]1C(=O)N[C@@H](CC(C)C)C(=O)N[C@@H](CCC(=O)O)C(=O)N[C@H](C(=O)N[C@@H](Cc1ccccc1)C(=O)N[C@@H](CCC(=O)O)C(=O)N[C@@H](Cc1c[nH]c2ccccc12)C(=O)N[C@@H](C)C(=O)N[C@@H](CCC(N)=O)C(=O)N[C@@H](Cc1c[nH]cn1)C(N)=O)[C@@H](C)CC)[C@@H](C)CC)[C@@H](C)O)C(C)C [SEQ ID NO: 247] (Ac-IHVTIPLEIFEWAQH-NH2) , write its IC50.
[reply] < 10 µM

* * *

Can you tell me pIC50 for the items I'm about to list?
Assayed system: IL-17RA/IL17RC dimerization induced by IL-17A (Homo sapiens)
Experimental protocol: IL-17RA/IL17RC dimerization assay in response to IL-17A (PathHunter Cytokine Receptor Assay)
Format: cell-based
Test settings: IL-17A at EC80; read-out: IC50 in IL-17RA/IL7RC dimerization assay
pIC50: −log10 of the molar value. Residues, ends and D or L forms follow the SMILES beside them.

[ask] For CC[C@H](C)[C@H](NC(C)=O)C(=O)N[C@@H](Cc1c[nH]cn1)C(=O)N[C@H](C(=O)N[C@H](C(=O)N[C@H](C(=O)N[C@H](C(=O)N[C@@H](C)C(=O)N[C@@H](CC(=O)O)C(=O)N[C@@H](CC(C)C)C(=O)N[C@@H](Cc1c[nH]c2ccccc12)C(=O)N[C@@H](CC(=O)O)C(=O)N[C@@H](Cc1c[nH]c2ccccc12)C(=O)N[C@H](C(=O)N[C@@H](CC(N)=O)C(=O)N[C@@H](CCCCN)C(N)=O)[C@@H](C)CC)[C@@H](C)CC)[C@@H](C)CC)[C@@H](C)O)C(C)C [SEQ ID NO: 190] (Ac-IHVTIIADLWDWINK-NH2) , write its pIC50.
[reply] > 5.00

[ask] For CC(=O)N[C@H](C(=O)N[C@@H](Cc1c[nH]cn1)C(=O)N[C@@H](Cc1ccccc1)C(=O)N[C@H](C(=O)N[C@@H](Cc1ccccc1)C(=O)N1CCC[C@H]1C(=O)N[C@@H](CCC(N)=O)C(=O)N[C@@H](CC(=O)O)C(=O)N[C@@H](CC(C)C)C(=O)N[C@@H](Cc1ccc(O)cc1)C(=O)N[C@@H](CC(N)=O)C(=O)N[C@@H](Cc1c[nH]c2ccccc12)C(=O)N[C@H](C(=O)N[C@@H](CCCNC(=N)N)C(=O)N[C@@H](CCCNC(=N)N)C(N)=O)C(C)C)[C@@H](C)O)C(C)C [SEQ ID NO: 147] (Ac-VHFTFPQDLYNWVRR-NH2) , write its pIC50.
[reply] > 6.30

* * *

Assayed system: IL-17RA/IL17RC dimerization induced by IL-17A (Homo sapiens)
Experimental protocol: IL-17RA/IL17RC dimerization assay in response to IL-17A (PathHunter Cytokine Receptor Assay)
Assay type: cell-based
Test settings: IL-17A at EC80; read-out: IC50 in IL-17RA/IL7RC dimerization assay
Residues, ends and D or L forms follow the SMILES beside them.
Recorded metric: IC50

[ask] For CC(=O)N[C@H](C(=O)N[C@@H](Cc1c[nH]cn1)C(=O)N[C@@H](Cc1ccccc1)C(=O)N[C@@H](CCC(N)=O)C(=O)N[C@@H](Cc1ccccc1)C(=O)N1CCC[C@H]1C(=O)N[C@@H](C)C(=O)N[C@@H](CC(=O)O)C(=O)N[C@@H](CC(C)C)C(=O)N[C@@H](Cc1ccc(O)cc1)C(=O)N[C@@H](CCC(=O)O)C(=O)N[C@@H](Cc1c[nH]c2ccccc12)C(=O)N[C@H](C(=O)N[C@@H](CCCNC(=N)N)C(=O)N[C@@H](CCCNC(=N)N)C(N)=O)C(C)C)C(C)C [SEQ ID NO: 132] (Ac-VHFQFPADLYEWVRR-NH2) , write its IC50.
[reply] < 500 nM

* * *

Type: physicochemical
Test settings: pH 7.8
Residues, ends and D or L forms follow the SMILES beside them.
Recorded metric: solubility

[ask] For CC[C@H](C)[C@H](NC(=O)[C@H](Cc1c[nH]c2ccccc12)NC(=O)[C@H](CC(=O)O)NC(=O)[C@H](Cc1c[nH]c2ccccc12)NC(=O)[C@H](CC(C)C)NC(=O)[C@H](CC(=O)O)NC(=O)[C@H](C)NC(=O)[C@@H]1CCCN1C(=O)[C@@H](NC(=O)[C@@H](NC(=O)[C@@H](NC(=O)[C@H](CCSC)NC(=O)[C@@H](NC(C)=O)C(C)C)C(C)C)[C@@H](C)O)[C@@H](C)CC)C(=O)N[C@@H](CC(N)=O)C(=O)N[C@@H](CCCCN)C(N)=O [SEQ ID NO: 4] (Ac-VMVTIPADLWDWINK-NH2) , write its solubility.
[reply] ≥ 20 µM

* * *

Can you tell me IC50 for the items I'm about to list?
Assayed system: IL-17RA/IL17RC dimerization induced by IL-17A (Homo sapiens, UniProt Q16552)
Experimental protocol: IL-17RA/IL17RC dimerization assay in response to IL-17A (PathHunter Cytokine Receptor Assay)
Format: cell-based
Test settings: IL-17A at EC80; read-out: IC50 in IL-17RA/IL7RC dimerization assay
Residues, ends and D or L forms follow the SMILES beside them.

[ask] For CC(=O)N[C@H](C(=O)N[C@@H](Cc1c[nH]cn1)C(=O)N[C@H](C(=O)N[C@H](C(=O)N[C@H](C(=O)N1CCC[C@H]1C(=O)N[C@@H](CCC(N)=O)C(=O)N[C@@H](CCC(=O)O)C(=O)N[C@@H](CC(C)C)C(=O)N[C@@H](Cc1ccccc1)C(=O)N[C@@H](CCC(=O)O)C(=O)N[C@@H](Cc1c[nH]c2ccccc12)C(=O)N[C@H](C(=O)N[C@@H](CCCNC(=N)N)C(=O)N[C@@H](CCCNC(=N)N)C(N)=O)C(C)C)C(C)C)[C@@H](C)O)C(C)C)C(C)C [SEQ ID NO: 225] (Ac-VHVTVPQELFEWVRR-NH2) , write its IC50.
[reply] < 10 µM

[ask] For CC[C@H](C)[C@H](NC(=O)[C@H](CCC(=O)O)NC(=O)[C@H](CC(C)C)NC(=O)[C@@H]1CCCN1C(=O)[C@@H](NC(=O)[C@H](CO)NC(=O)CNC(=O)[C@H](CCCNC(=N)N)NC(=O)[C@H](CC(C)C)NC(C)=O)C(C)C)C(=O)N[C@@H](Cc1ccccc1)C(=O)N[C@@H](CCC(=O)O)C(=O)N[C@@H](Cc1c[nH]c2ccccc12)C(=O)N[C@@H](CC(C)C)C(=O)N[C@@H](CCC(N)=O)C(=O)N[C@@H](Cc1c[nH]cn1)C(N)=O [SEQ ID NO: 253] (Ac-LRGSVPLEIFEWLQH-NH2) , write its IC50.
[reply] < 10 µM

[ask] For CC(=O)N[C@H](C(=O)N[C@@H](Cc1c[nH]cn1)C(=O)N[C@H](C(=O)N[C@H](C(=O)N[C@H](C(=O)N1CCC[C@H]1C(=O)N[C@@H](CCC(N)=O)C(=O)N[C@@H](CCC(=O)O)C(=O)N[C@@H](CC(C)C)C(=O)N[C@@H](Cc1c[nH]c2ccccc12)C(=O)N[C@@H](CCC(=O)O)C(=O)N[C@@H](Cc1c[nH]c2ccccc12)C(=O)N[C@H](C(=O)N[C@@H](CCC(=O)O)C(=O)N[C@@H](CCC(=O)O)C(N)=O)C(C)C)C(C)C)[C@@H](C)O)C(C)C)C(C)C [SEQ ID NO: 227] (Ac-VHVTVPQELWEWVEE-NH2) , write its IC50.
[reply] < 10 µM

[ask] For CC[C@H](C)[C@H](NC(C)=O)C(=O)N[C@@H](Cc1c[nH]cn1)C(=O)N[C@H](C(=O)N[C@H](C(=O)N[C@H](C(=O)N1CCC[C@H]1C(=O)N[C@@H](C)C(=O)N[C@@H](CC(=O)O)C(=O)N[C@@H](CC(C)C)C(=O)N[C@@H](Cc1c[nH]c2ccccc12)C(=O)N[C@@H](CC(=O)O)C(=O)N[C@@H](Cc1c[nH]c2ccccc12)C(=O)NCC(=O)N[C@@H](CC(N)=O)C(=O)N[C@@H](CCCCN)C(N)=O)[C@@H](C)CC)[C@@H](C)O)C(C)C [SEQ ID NO: 215] (Ac-IHVTIPADLWDWGNK-NH2) , write its IC50.
[reply] < 10 µM
